- Assay remarks: activity coefficient (dimensionless); of the first substance listed, at infinite dilution; xn = mol fraction of the nth substance listed
- Particulars: 302.8 K; 101 kPa; Liquid; Chromatography; x1 = 0
// label = t if activity coefficient is not less than 6, otherwise f

Before answering, review these 10 worked examples.
Compound | Cat
Cc1ccccc1 [toluene] + CCCC[n+]1ccccc1.O=S(=O)([N-]S(=O)(=O)C(F)(F)F)C(F)(F)F | f
CCCO [propan-1-ol] + CCCCC[n+]1ccccc1.O=S(=O)([N-]S(=O)(=O)C(F)(F)F)C(F)(F)F | f
CCCCCC [hexane] + CCCC[n+]1ccccc1.O=S(=O)([N-]S(=O)(=O)C(F)(F)F)C(F)(F)F | t
CCc1ccccc1 [ethylbenzene] + CCCC[n+]1ccccc1.O=S(=O)([N-]S(=O)(=O)C(F)(F)F)C(F)(F)F | f
CC1CCCCC1 [methylcyclohexane] + CC[n+]1ccccc1.O=S(=O)([N-]S(=O)(=O)C(F)(F)F)C(F)(F)F | t
Cc1ccccc1C [1,2-dimethylbenzene] + CCCC[n+]1ccccc1.O=S(=O)([N-]S(=O)(=O)C(F)(F)F)C(F)(F)F | f
CC1CCCCC1 [methylcyclohexane] + CCCC[n+]1ccccc1.O=S(=O)([N-]S(=O)(=O)C(F)(F)F)C(F)(F)F | t
Cc1cccc(C)c1 [1,3-dimethylbenzene] + CC[n+]1ccccc1.O=S(=O)([N-]S(=O)(=O)C(F)(F)F)C(F)(F)F | f
CCCCCCCCC [nonane] + CC[n+]1ccccc1.O=S(=O)([N-]S(=O)(=O)C(F)(F)F)C(F)(F)F | t
CCCCCCC [heptane] + CC[n+]1ccccc1.O=S(=O)([N-]S(=O)(=O)C(F)(F)F)C(F)(F)F | t

Q: Please indicate if the recorded activity coefficient for CCO [ethanol] + CCCCC[n+]1ccccc1.O=S(=O)([N-]S(=O)(=O)C(F)(F)F)C(F)(F)F meets or exceeds 6.
Result: f

Q: Please indicate if the recorded activity coefficient for Cc1ccc(C)cc1 [1,4-dimethylbenzene] + CCCC[n+]1ccccc1.O=S(=O)([N-]S(=O)(=O)C(F)(F)F)C(F)(F)F meets or exceeds 6.
Result: f

Q: Please indicate if the recorded activity coefficient for C#CCCCC [1-hexyne] + CCCCC[n+]1ccccc1.O=S(=O)([N-]S(=O)(=O)C(F)(F)F)C(F)(F)F meets or exceeds 6.
Result: f

Q: Please indicate if the recorded activity coefficient for Cc1cccc(C)c1 [1,3-dimethylbenzene] + CCCC[n+]1ccccc1.O=S(=O)([N-]S(=O)(=O)C(F)(F)F)C(F)(F)F meets or exceeds 6.
Result: f

Q: Please indicate if the recorded activity coefficient for CCCCCCC [heptane] + CCCC[n+]1ccccc1.O=S(=O)([N-]S(=O)(=O)C(F)(F)F)C(F)(F)F meets or exceeds 6.
Result: t

Q: Please indicate if the recorded activity coefficient for C#CCCCCC [1-heptyne] + CCCCC[n+]1ccccc1.O=S(=O)([N-]S(=O)(=O)C(F)(F)F)C(F)(F)F meets or exceeds 6.
Result: f

Q: Please indicate if the recorded activity coefficient for C#CCCCCCC [1-octyne] + CCCCC[n+]1ccccc1.O=S(=O)([N-]S(=O)(=O)C(F)(F)F)C(F)(F)F meets or exceeds 6.
Result: f

Q: Please indicate if the recorded activity coefficient for C1CCCCC1 [cyclohexane] + CC[n+]1ccccc1.O=S(=O)([N-]S(=O)(=O)C(F)(F)F)C(F)(F)F meets or exceeds 6.
Result: t

Q: Please indicate if the recorded activity coefficient for C#CCCC [1-pentyne] + CCCCC[n+]1ccccc1.O=S(=O)([N-]S(=O)(=O)C(F)(F)F)C(F)(F)F meets or exceeds 6.
Result: f

Data origin, for the record: the NIST ThermoML archive (doi:10.1016/j.jct.2010.06.009)
